tested on: Monoclonal antibody (mAb); assay: Binding affinity against human monoclonal antibody (mAb)-7F2
recorded-endpoint: IC50 ratio

[[record]]
compound = "CO[C@H]1[C@H](O)[C@H](O[C@H]2CC[C@@]3(C)[C@H](CC[C@@H]4[C@@H]3CC[C@]3(C)[C@@H](C5=CC(=O)OC5)CC[C@]43O)C2)O[C@@H](C)[C@@H]1O"
assay_value = 9.5

[[record]]
compound = "C[C@@H]1O[C@@H](O[C@@H]2C=C3CC[C@@H]4[C@H](CC[C@]5(C)[C@@H](c6ccc(=O)oc6)CC[C@]45O)[C@@]3(C)CC2)[C@H](O)[C@H](O)[C@H]1O"
assay_value = 69

[[record]]
compound = "C[C@]12CC[C@@H](O)C[C@@H]1CC[C@@H]1[C@@H]2CC[C@]2(C)C(=O)CC[C@@H]12"
assay_value = 1300

[[record]]
compound = "C[C@]12CC[C@H](O)C[C@H]1CC[C@@H]1[C@@H]2CC[C@]2(C)[C@@H](c3ccc(=O)oc3)CC[C@]12O"
assay_value = 550

[[record]]
compound = "CC(=O)O[C@H]1C[C@]2(O)[C@@H]3CC[C@@H]4C[C@@H](O[C@@H]5C[C@H](O)[C@H](O[C@H]6C[C@H](O)[C@H](O[C@H]7C[C@H](O)[C@H](O)[C@@H](C)O7)[C@@H](C)O6)[C@@H](C)O5)CC[C@]4(C)[C@H]3CC[C@]2(C)[C@H]1C1=CC(=O)OC1"
assay_value = 330

[[record]]
compound = "C[C@]12CC[C@H](O)C[C@H]1CC[C@@H]1[C@@H]2C[C@@H](O)[C@]2(C)[C@@H](C3=CC(=O)OC3)CC[C@]12O [DIGOXIGENIN]"
assay_value = 4.6

[[record]]
compound = "CC(=O)O[C@H]1CC[C@@]2(C)[C@H](CC[C@@H]3[C@@H]2C[C@@H](O)[C@]2(C)[C@@H](C4=CC(=O)OC4)CC[C@]32O)C1"
assay_value = 110

[[record]]
compound = "CC(=O)O[C@H]1C[C@H](O[C@H]2CC[C@@]3(C)[C@H](CC[C@@H]4[C@@H]3C[C@@H](O)[C@]3(C)C(C5=CC(=O)OC5)CC[C@]43O)C2)O[C@H](C)[C@H]1O[C@H]1C[C@H](O)[C@H](O[C@H]2C[C@H](O)[C@H](O)[C@@H](C)O2)[C@@H](C)O1 (stereo partly drawn)"
assay_value = 1

[[record]]
compound = "C[C@H]1O[C@@H](O[C@H]2[C@@H](O)C[C@H](O[C@H]3[C@@H](O)C[C@H](O[C@H]4CC[C@@]5(C)[C@H](CC[C@@H]6[C@@H]5CC[C@]5(C)[C@@H](C7=CC(=O)OC7)[C@@H](O)C[C@]65O)C4)O[C@@H]3C)O[C@@H]2C)C[C@H](O)[C@@H]1O"
assay_value = 81

[[record]]
compound = "C[C@]12CC[C@H]3[C@@H](CC[C@]4(O)C[C@@H](O)CC[C@]34C=O)[C@@]1(O)CC[C@@H]2C1=CC(=O)OC1"
assay_value = 84

[[record]]
compound = "CC(=O)O[C@]1(C(C)=O)CC[C@H]2[C@@H]3CCC4=C/C(=N/OCC(=O)O)CC[C@]4(C)[C@H]3CC[C@@]21C"
assay_value = "No inhibition"

[[record]]
compound = "C[C@]12C=CC(=O)C=C1CC[C@@H]1[C@@H]2C(=O)C[C@@]2(C)[C@H]1CC[C@]2(O)C(=O)CO"
assay_value = "No inhibition"

[[record]]
compound = "C[C@]12CCC(=O)C=C1CC[C@@H]1[C@@H]2[C@@H](O)C[C@]2(C=O)[C@@H](C(=O)CO)CC[C@@H]12"
assay_value = 540

[[record]]
compound = "CC(=O)OCC(=O)[C@@]1(O)CC[C@H]2[C@@H]3CCC4=CC(=O)C=C[C@]4(C)[C@H]3[C@@H](O)C[C@@]21C"
assay_value = 12000

[[record]]
compound = "CC(=O)O[C@H]1C[C@H](O[C@H]2[C@@H](O)C[C@H](O[C@H]3[C@@H](O)C[C@H](O[C@H]4CC[C@@]5(C)[C@H](CC[C@@H]6[C@@H]5CC[C@]5(C)[C@@H](C7=CC(=O)OC7)CC[C@]65O)C4)O[C@@H]3C)O[C@@H]2C)O[C@H](C)[C@H]1O"
assay_value = 25

[[record]]
compound = "C[C@H]1O[C@@H](O[C@H]2[C@@H](O)C[C@H](O[C@H]3CC[C@@]4(C)[C@H](CC[C@@H]5[C@@H]4CC[C@]4(C)[C@@H](C6=CC(=O)OC6)CC[C@]54O)C3)O[C@@H]2C)C[C@H](O)[C@@H]1O"
assay_value = 14

[[record]]
compound = "CC1CC(O[C@H]2CC[C@@]3(C)[C@H](CC[C@@H]4[C@@H]3CC[C@]3(C)[C@@H](C5=CC(=O)OC5)CC[C@]43O)C2)CC(O)C1O (stereo partly drawn)"
assay_value = 29

[[record]]
compound = "C[C@]12C[C@H](O)[C@H]3[C@@H](CCC4=CC(=O)CC[C@@]43C)[C@@H]1CC[C@@H]2C(=O)CO"
assay_value = 390

[[record]]
compound = "C[C@H]1O[C@@H](O[C@H]2[C@@H](O)C[C@H](O[C@H]3[C@@H](O)C[C@H](O[C@H]4CC[C@@]5(C)[C@H](CC[C@@H]6[C@@H]5C[C@@H](O)[C@]5(C)[C@@H](C7=CC(=O)OC7)CC[C@]65O)C4)O[C@@H]3C)O[C@@H]2C)C[C@H](O)[C@@H]1O [DIGOXIN]"
assay_value = 1

[[record]]
compound = "C[C@]12CC[C@H]3[C@@H](CCC4=CC(=O)CC[C@@]43C)[C@@H]1CC[C@@H]2O"
assay_value = 100

[[record]]
compound = "C[C@@H]1O[C@H](O[C@H]2CC[C@@]3(C)[C@H](CC[C@@H]4[C@@H]3CC[C@]3(C)[C@@H](C5=CC(=O)OC5)CC[C@]43O)C2)[C@@H](O)[C@@H](O)[C@@H]1O"
assay_value = 22

[[record]]
compound = "C[C@]12CC[C@H](O)C[C@H]1CC[C@@H]1[C@@H]2CC[C@]2(C)[C@@H](C3=CC(=O)OC3)[C@@H](O)C[C@]12O"
assay_value = 2000

